- Tested on: Phospho-ERK1/2 in DLD1 cells
- procedure.text: Phospho-ERK1/2 expression inhibition in DLD1 cells
- Format: cell-based
- experimental.context: Homo sapiens, DLD-1, 4 hours, read-out: DLD1 pERK IC50
Please respond with reported IC50 for every item in the list.

With Phospho-ERK1/2 in DLD1 cells as the test system, `CC(=O)N1CC[C@](F)(c2ccc3nccc(N[C@H](C)c4cccc(C(F)F)c4F)c3c2)C1` showed IC50 of > 500 nM

Entry `Cc1c([C@@H](C)Nc2ccnc3ccc(N4C[C@@H]5C[C@H]4CO5)cc23)cccc1C(F)(F)F` , Phospho-ERK1/2 in DLD1 cells data, IC50 value: > 500 nM

Tested system Phospho-ERK1/2 in DLD1 cells; IC50 recorded for `CN[C@@H]1CCN(c2ccc3nccc(N[C@H](C)c4cccc(C(F)F)c4F)c3c2)C1` was > 500 nM

Entry `CC(=O)N1CCN(c2ccc3nccc(N[C@H](C)c4cccc(C(F)(F)F)c4C)c3c2)[C@@H](C)C1` , tested on Phospho-ERK1/2 in DLD1 cells, has a reported IC50 of > 500 nM

Item: `CNC1CCN(c2ccc3nccc(N[C@H](C)c4cccc(C(F)(F)F)c4C)c3c2)CC1` | System: Phospho-ERK1/2 in DLD1 cells | IC50: > 500 nM

Item: `CO[C@@]1(c2ccc3nccc(N[C@H](C)c4cccc(C(F)F)c4F)c3c2)CCN(C(=O)N(C)C)C1` | System: Phospho-ERK1/2 in DLD1 cells | IC50: 150 to 500 nM

Entry `CC(=O)N1CCC(c2ccc3nccc(N[C@H](C)c4cccc(C(F)F)c4F)c3c2)CC1` : IC50 on Phospho-ERK1/2 in DLD1 cells = 150 to 500 nM

Param item: `CC(=O)N1CCN(c2ccc3nccc(N[C@H](C)c4cccc(C(F)(F)F)c4C)c3c2)C[C@@H]1C` ; param system: Phospho-ERK1/2 in DLD1 cells; output IC50: > 500 nM
